Biological target: Recombinant STAT3 protein (STAT3 (G127-I722)) (Homo sapiens, UniProt P40763)
Construct: Recombinant STAT3 protein (STAT3 (G127-I722))
Sequence (P40763 127-722): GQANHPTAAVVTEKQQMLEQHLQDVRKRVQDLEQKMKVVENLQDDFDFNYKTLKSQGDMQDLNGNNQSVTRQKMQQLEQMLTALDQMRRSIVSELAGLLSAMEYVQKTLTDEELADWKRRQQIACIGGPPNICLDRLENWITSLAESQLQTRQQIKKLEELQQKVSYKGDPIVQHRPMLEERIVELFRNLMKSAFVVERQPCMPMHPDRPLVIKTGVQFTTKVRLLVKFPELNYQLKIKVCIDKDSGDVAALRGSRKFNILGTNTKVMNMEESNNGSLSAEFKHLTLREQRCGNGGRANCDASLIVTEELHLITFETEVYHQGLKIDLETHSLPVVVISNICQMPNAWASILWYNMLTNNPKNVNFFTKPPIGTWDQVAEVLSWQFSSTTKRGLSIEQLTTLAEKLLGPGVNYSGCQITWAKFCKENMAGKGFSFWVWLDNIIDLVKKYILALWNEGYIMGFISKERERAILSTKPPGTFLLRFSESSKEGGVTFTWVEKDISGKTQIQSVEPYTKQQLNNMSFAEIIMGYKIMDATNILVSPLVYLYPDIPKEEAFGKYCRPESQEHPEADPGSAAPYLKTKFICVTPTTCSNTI
Test: STAT3 Fluorescence Polarization (FP) Assay
Type: binding
Conditions: STAT3 (G127-I722) 25 nM, probe 5-FAM-GpYLPQTV-NH2 2 nM, 45-minute incubation; read-out: STAT3 (FP assay IC50 class)
pIC50: −log10 of the molar value.
testReadout: pIC50

compound=O=C(N[C@H]1CCC[C@H]2CC[C@@H](C(=O)N3CC(c4cccnc4)C3)N2C1=O)c1cc2cc([C@H](F)P(=O)(O)O)ccc2s1 testreadout=pIC50 reportedmeasurement="> 7.00"
compound="CC1(C)CC(c2ccccc2)CN1C(=O)[C@@H]1CC[C@@H]2CCCC[C@H](NC(=O)c3cc4cc(C(F)(F)P(=O)(O)O)ccc4s3)C(=O)N21 (some centres unmarked)" testreadout=pIC50 reportedmeasurement="5.00 to 6.00"
compound="O=C(N[C@H]1CCC[C@H]2CC[C@@H](C(=O)N3CC(c4ccnc(O)c4)C3)N2C1=O)c1cc2cc(C(F)P(=O)(O)O)ccc2s1 (some centres unmarked)" testreadout=pIC50 reportedmeasurement="6.00 to 7.00"
compound="C[C@H]1C[C@H]2CC[C@@H](C(=O)N3CC(c4cncnc4N4CCC4)C3)N2C(=O)[C@@H](NC(=O)c2cc3cc([C@H](F)P(=O)(O)O)ccc3s2)C1 (single isomer, unassigned)" testreadout=pIC50 reportedmeasurement="> 7.00"
compound="Cn1cc(F)c(C2CN(C(=O)[C@@H]3CC[C@@H]4CCC[C@H](NC(=O)c5cc6cc(C(F)P(=O)(O)O)ccc6s5)C(=O)N43)C2)n1 (some centres unmarked)" testreadout=pIC50 reportedmeasurement="5.00 to 6.00"

All values here come from patent US20250215029A1.
